assay_explanation: In vitro plasma protein binding
Type: in vitro ADME
cond: data not shown, read-out: fu,p (unbound fraction, plasma protein)
observed_property: fraction unbound

## Input Input Nc1nc(=O)n([C@H]2C[C@H](O)[C@@H](CO)O2)cc1F [FdCyd, 5-fluoro-2′-deoxycytidine] , output reported fraction unbound.
## Output ~1

====

System: mouse EP neurospheres
assay_explanation: 72 h dose response, CellTiter-Glo, mouse EP neurospheres
Format: cell-based
cond: Mus musculus, Fig. 2a, read-out: EC50
observed_property: EC50

## Input Input `Nc1nc(=O)n([C@H]2C[C@H](O)[C@@H](CO)O2)cc1F` , output reported EC50.
## Output 4 nM

====

Measured EC50, listed per entry.
Test system: mouse CPC neurospheres (CPC300)
assay_explanation: 72 h dose response, CellTiter-Glo, mouse CPC neurospheres
Format: cell-based
cond: 72 hr treatment, 384-well, read-out: CPC300 EC50

Guide cases for EC50, answers given:
[
  {
    "compound": "CCNC(=O)C[C@@H]1N=C(c2ccc(Cl)cc2)c2cc(OC)ccc2-n2c(C)nnc21 [I-BET]",
    "observed_property": "EC50",
    "value_reported": "> 5.5 µM"
  },
  {
    "compound": "CC(/C=C/C(=O)NO)=C\\[C@@H](C)C(=O)c1ccc(N(C)C)cc1 [Trichostatin A]",
    "observed_property": "EC50",
    "value_reported": "2.1 µM"
  }
]

Let us examine a further case.
## Input Input Cc1sc2c(c1C)C(c1ccc(Cl)cc1)=N[C@@H](CC(=O)OC(C)(C)C)c1nnc(C)n1-2 [JQ1] , output reported EC50.
## Output > 5.6 µM

====

assay_explanation: Cerebral microdialysis, tECF disposition in tumor-bearing CD1 nude mice
Format: in vivo
cond: mouse, tumor extracellular fluid (dialysate) vs plasma, mice bearing EP, FdCyd 6 mg/kg with THU 100 mg/kg, read-out: tECF-to-plasma partition coefficient of unbound FdCyd (Kpt,uu), mean ± SD
observed_property: Kp
Kindly provide the number alone.

## Input Input `Nc1nc(=O)n([C@H]2C[C@H](O)[C@@H](CO)O2)cc1F` , output reported Kp.
## Output 0.18

====

assay_explanation: In vitro brain homogenate binding
Format: in vitro ADME
cond: data not shown, read-out: fu,b (unbound fraction, brain homogenate)
observed_property: fraction unbound

## Input Input `Nc1nc(=O)n([C@H]2C[C@H](O)[C@@H](CO)O2)cc1F` , output reported fraction unbound.
## Output ~1

====

Tested on: EP cells
assay_explanation: FdCyd wash-out experiment, EP
Assay type: cell-based
cond: Mus musculus, 1 h exposure then wash-out, read at 72 h; read-out: EC50 after 1 h FdCyd exposure
observed_property: pEC50
Please treat pEC50 as minus the base-10 logarithm of the molar concentration.

## Input Input Nc1nc(=O)n([C@H]2C[C@H](O)[C@@H](CO)O2)cc1F [FdCyd, 5-fluoro-2′-deoxycytidine] , output reported pEC50.
## Output 7.66

====

assay_explanation: Cerebral microdialysis, tECF disposition in tumor-bearing CD1 nude mice
Type: in vivo
cond: mouse, tumor extracellular fluid (dialysate) vs plasma, mice bearing CPC, FdCyd 6 mg/kg with THU 100 mg/kg, read-out: tECF-to-plasma partition coefficient of unbound FdCyd (Kpt,uu), mean ± SD
observed_property: Kp
Kindly provide the number alone.

## Input Input `Nc1nc(=O)n([C@H]2C[C@H](O)[C@@H](CO)O2)cc1F` , output reported Kp.
## Output 0.09

====

System: mouse CPC neurospheres (CPC300)
assay_explanation: 72 h dose response, CellTiter-Glo, mouse CPC neurospheres
Assay type: cell-based
cond: Mus musculus, 72 hr treatment, 384-well, read-out: CPC300 EC50
Measured EC50, listed per entry.
The figure you give is taken to be in nM; do not add the unit.

[
  {
    "molecule": "Nc1nccc2c1ncn2C1C=C(CO)C(O)C1O (stereo not drawn) [3-Deazaneplanocin A]",
    "units_text": "nM",
    "EC50": 310
  },
  {
    "molecule": "Nc1ncn([C@@H]2O[C@H](CO)[C@@H](O)[C@H]2O)c(=O)n1 [5-Azacytidine]",
    "units_text": "nM",
    "EC50": 1080
  }
]

## Input Input Nc1ncn([C@H]2C[C@H](O)[C@@H](CO)O2)c(=O)n1 [Decitabine] , output reported EC50.
## Output 6700
